This section lists pKi readings for Prostaglandin E2 receptor EP4 subtype (Mus musculus).
// field semantics: pKi = negative decimal log of concentration (mol/L)

In the examples that follow, each entry is paired with its recorded pKi.
[[record]]
compound = "Cc1cc2c(CC(=O)O)cccc2n1C(=O)c1ccc(OCCCc2ccccc2)cc1"
value_reported = 5.68

[[record]]
compound = "Cc1cc2c(CC(=O)O)cccc2n1C(=O)c1ccc(OCCc2ccccc2)cc1"
value_reported = 5.72


Please examine the following record next.
[Q] GET /values?readout=pKi&item= Cc1cc2c(CC(=O)O)cccc2n1C(=O)c1ccc(OCC2COc3ccccc3C2)cc1 (stereo unspecified)
[A] 5.46

* * *

Biological target: Prostaglandin D2 receptor (Homo sapiens, UniProt Q13258)
Sequence (Q13258 whole entry): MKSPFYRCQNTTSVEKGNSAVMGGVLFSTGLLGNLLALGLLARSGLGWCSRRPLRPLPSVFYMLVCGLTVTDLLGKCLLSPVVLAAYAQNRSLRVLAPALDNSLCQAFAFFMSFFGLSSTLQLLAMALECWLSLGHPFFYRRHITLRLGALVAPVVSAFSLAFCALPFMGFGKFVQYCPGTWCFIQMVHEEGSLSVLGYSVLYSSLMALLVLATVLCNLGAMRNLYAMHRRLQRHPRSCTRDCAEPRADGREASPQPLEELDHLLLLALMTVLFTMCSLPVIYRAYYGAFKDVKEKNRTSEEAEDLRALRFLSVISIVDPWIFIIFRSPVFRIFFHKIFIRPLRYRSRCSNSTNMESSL
Test: Effect on the increase in cAMP formation induced by PGD-2 in the presence of bovine serum albumin in CHO cells expressing human Prostaglandin D2 receptor
pIC50: −log10 of the molar value.
Tick Criterion met if pIC50 is 8 or greater. Tick Criterion not met if pIC50 is less than 8.

[[record]]
compound = "Cc1cc2c(CC(=O)O)cccc2n1C(=O)c1ccc(OC[C@@H]2COc3ccccc3O2)cc1"
test_target = "Prostaglandin D2 receptor (Homo sapiens, UniProt Q13258)"
class_name = "Criterion not met"

[[record]]
compound = "Cc1cc2c(CC(=O)O)cccc2n1C(=O)c1ccc(OC[C@@H]2CN(C)c3ccc(F)cc3O2)cc1"
test_target = "Prostaglandin D2 receptor (Homo sapiens, UniProt Q13258)"
class_name = "Criterion met"

[[record]]
compound = "Cc1cc2c(CC(=O)O)cccc2n1C(=O)c1ccc(OCC2Cc3ccccc3O2)cc1 (centres undefined)"
test_target = "Prostaglandin D2 receptor (Homo sapiens, UniProt Q13258)"
class_name = "Criterion not met"


[Q] Does pIC50 meet or surpass 8 for `Cc1cc2c(CC(=O)O)cccc2n1C(=O)c1ccc(OC[C@@H]2CN(C)c3ccccc3O2)cc1` ?
[A] Criterion met

[Q] Does pIC50 meet or surpass 8 for Cc1cc2c(CC(=O)O)cccc2n1C(=O)c1ccc(OCC2CCc3ccccc3O2)cc1 (centres undefined) ?
[A] Criterion not met

[Q] Does pIC50 meet or surpass 8 for `Cc1cc2c(CC(=O)O)cccc2n1C(=O)c1ccc(OCCOc2ccccc2)cc1` ?
[A] Criterion not met

[Q] Does pIC50 meet or surpass 8 for `Cc1cc2c(CC(=O)O)cccc2n1C(=O)c1ccc(OC[C@H]2COc3ccccc3O2)cc1` ?
[A] Criterion not met

[Q] Does pIC50 meet or surpass 8 for `Cc1cc2c(CC(=O)O)cccc2n1C(=O)c1ccc(OCC2Oc3ccccc3O2)cc1` ?
[A] Criterion not met
